assay: Toxicity liver stage against HepG2, at 10uM; format: cell-based; design: test concentration 10 uM, cell line HepG2-A16-CD81EGFP; conditions: human, HepG2-A16-CD81EGFP cells; read-out: INHIBITION
measure: cytotoxicity at 10 µM (%)
The reply should be a number in %, with the unit left off.

Before answering, review these 2 worked examples.
| compound | numeric-result |
| --- | --- |
| Cc1cc(CN(C)Cc2ncc(-c3ccccc3)o2)no1 | -13.8 |
| CCn1nccc1CNc1[nH]cnc2nc(C)nc1-2 | -12 |

Exercise: Which cytotoxicity at 10 µM is reported for this compound? `Cc1nc(C(=O)N2CCC(c3nnc(Cn4ccnc4)n3C)CC2)cs1`
Key: -127

Exercise: # query: cytotoxicity at 10 µM of entry CCOC1CCC2(CCN(C(=O)c3c[nH]cn3)CC2)c2ccccc21 (stereo not given)
Key: 7.5

Exercise: Reported cytotoxicity at 10 µM for `Cc1cc(S(=O)(=O)Nc2cccc(-n3cccc3)c2)sc1C(=O)O` : what is it?
Key: -2.23

* * *

experiment: Toxicity liver stage against HepG2, at 10uM; type: cell-based; set-up: test concentration 10 uM, cell line HepG2-A16-CD81EGFP; details: human, HepG2-A16-CD81EGFP cells; read-out: INHIBITION
measure: cytotoxicity at 10 µM
# do not omit the unit; it follows the number

| compound | result |
| --- | --- |
| Cc1cccnc1N1CCN(Cc2cc(O)c3cccc(F)c3n2)CC1 | 2.2% |

Exercise: Request the reported cytotoxicity at 10 µM associated with Cc1ccccc1-n1nc(C)c(CN(C)C(C)Cc2ccccn2)c1C (stereo not given)
Key: 0.58%

Exercise: Recorded cytotoxicity at 10 µM for `CNC(=O)C1CCN(C(=O)c2ccn(-c3ccc(F)cc3)n2)CC1` , please?
Key: -2.7%

Exercise: cytotoxicity at 10 µM for `CSc1cccc(CN(C)C(=O)Cn2ncc(N(C)C)cc2=O)c1` ?
Key: 0.0849%

Exercise: Query: cytotoxicity at 10 µM; subject: `CN(C)CCOCc1nnc2n1CCN(Cc1ccoc1)CC2`
Key: -10.7%

* * *

test: Toxicity liver stage against HepG2, at 10uM; format: cell-based; parameters: test concentration 10 uM, cell line HepG2-A16-CD81EGFP; details: human, HepG2-A16-CD81EGFP cells; read-out: INHIBITION
# key: entry, value: cytotoxicity at 10 µM
Give the figure together with its unit, number first.

Below, each entry is followed by its recorded cytotoxicity at 10 µM result.
| compound | result |
| --- | --- |
| CCS(=O)(=O)c1ccccc1N1CCC(NC2CCCC2)CC1 | -2.63% |
| CN1CC(C(=O)NCCc2ccc3c(c2)OCCO3)CC1=O (stereo unspecified) | 5.51% |
| CCN(CC)C(=O)[C@@H]1C[C@H](N)CN1c1noc(-c2ccccc2)n1 | -49.8% |
| Cc1cnn(C2CCCN(C(=O)c3cn4ccccc4n3)C2)c1 (stereo unspecified) | -6.35% |
| COc1ccc(N2CCN(Cc3nc(CSC)no3)CC2=O)cc1 | 1.44% |

Exercise: Sample `O=C(OCCNc1ncccn1)c1ccc(Cl)s1` — what was its cytotoxicity at 10 µM?
Key: -2.43%

Exercise: Item `CNC(=O)[C@@H]1CN(Cc2ccccc2)C[C@H]1C(=O)c1ccc(F)cc1` has what recorded cytotoxicity at 10 µM?
Key: -0.17%

Exercise: Which cytotoxicity at 10 µM value belongs to Cc1cccnc1CNCC1(O)CCCN(Cc2ccc(F)cc2)C1=O (stereo unspecified) ?
Key: -12.3%

Exercise: What does the record list as cytotoxicity at 10 µM for CN(C)C(=O)N1Cc2nnn(C)c2C(COCC2CC2)C1 (stereo unspecified) ?
Key: -10.7%

Exercise: Entry under review: FC1(F)CCNCC12CCN(c1ncccn1)C2 (stereo unspecified) . Reported cytotoxicity at 10 µM?
Key: 6.65%

Exercise: Please report the recorded cytotoxicity at 10 µM for Cc1ccc(C(C)NC(=O)Cc2c(C)nc3c(c2C)c(=O)[nH]n3C)o1 (stereo unspecified) .
Key: -16.3%

Exercise: cytotoxicity at 10 µM for Cc1noc(C)c1C1CCCN1C(=O)CN1CC2(CCNCC2)OC1=O (stereo unspecified) ?
Key: -5.24%

Exercise: Bench note: what cytotoxicity at 10 µM did `CC(C)c1nc2c(n1C)CCN(Cc1nc(-c3ccoc3)no1)C2` show?
Key: -2.06%

Exercise: Which cytotoxicity at 10 µM value is on record for `COc1ncccc1C(=O)N1CC(c2nc(-c3cccs3)no2)C1` ?
Key: -21.5%

Exercise: Looking for the measured cytotoxicity at 10 µM of `Cc1nc(CN2CCN(c3ccc(Cl)cn3)CC2)no1` , can you help?
Key: 1.3%

Exercise: Reported cytotoxicity at 10 µM for `Cc1nc[nH]c1CN1C[C@@H]2OCCN(c3ncccn3)[C@@H]2C1` : what is it?
Key: -70.4%
